B1: mRNA-splicing (parent)
chain: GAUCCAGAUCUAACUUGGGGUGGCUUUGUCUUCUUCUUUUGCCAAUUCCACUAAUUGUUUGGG

Variants of: B1
Test: exon inclusion enrichment score (log2 ratio to wild type); higher = more inclusion; FAS exon 6 minigene, HEK293
Kindly return true if reported exon inclusion enrichment score is no lower than -0.3; return false if it is lower.

Is exon inclusion enrichment score for C48A at or above -0.3? false

Same question, C5G this time true

Same question, U3G this time true

Same question, A12C this time true

Same question, G41A this time false

Same question, C33G this time false

Same question, U59C this time true

Same question, C24U this time false

Same question, A54G this time false

Same question, G1U this time false

Same question, A8G this time true

Values compiled from the RNAGym collection of RNA variant scans (doi:10.1038/ncomms11558).
